Biological target: Proteasome Macropain subunit MB1 (Homo sapiens) (UniProt P28074)
Sequence (whole entry): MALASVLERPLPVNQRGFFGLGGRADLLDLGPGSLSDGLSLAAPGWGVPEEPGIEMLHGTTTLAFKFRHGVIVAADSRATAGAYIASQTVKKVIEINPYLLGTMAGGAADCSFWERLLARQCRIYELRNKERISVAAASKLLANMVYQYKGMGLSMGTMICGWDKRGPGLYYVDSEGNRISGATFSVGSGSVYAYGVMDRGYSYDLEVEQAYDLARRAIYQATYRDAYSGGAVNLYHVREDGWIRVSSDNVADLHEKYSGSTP
Test: Inhibition of chymotrypsin-like activity of beta5 subunit of 20S proteasome in human erythrocytes using Suc-LLVY-MCA as substrate preincubated with enzyme for 10 mins followed by substrate addition and measured after 3 hrs by fluorescence spectrophotometric analysis
assayEndpoint: inhibition

| testSmiles | testedTarget | endpointValue |
| --- | --- | --- |
| C=C1CC[C@H]2C(C)(C)[C@H](O)CC[C@]2(C)[C@H]1C[C@]12O[C@H]1[C@H](O)C(COC(=O)C[C@H](C)O)=CC2=O | Proteasome Macropain subunit MB1 (Homo sapiens) (UniProt P28074) | Dose-dependent effect |
| C=C1CC[C@H]2C(C)(C)[C@H](O)CC[C@]2(C)[C@H]1C[C@]12O[C@H]1C(=O)C(COC(=O)[C@H](O)[C@H](C)O)=CC2=O | Proteasome Macropain subunit MB1 (Homo sapiens) (UniProt P28074) | Dose-dependent effect |
| C=C1CC[C@H]2C(C)(C)[C@H](O)CC[C@]2(C)[C@H]1C[C@]12O[C@H]1C(=O)C(CO)=CC2=O | Proteasome Macropain subunit MB1 (Homo sapiens) (UniProt P28074) | Dose-dependent effect |
| C=C1CC[C@H]2C(C)(C)[C@H](O)CC[C@]2(C)[C@H]1C[C@]12O[C@H]1[C@H](O)C(COC(=O)[C@H](O)[C@H](C)O)=CC2=O | Proteasome Macropain subunit MB1 (Homo sapiens) (UniProt P28074) | Dose-dependent effect |

Could you now look at the following compound, please?
Qu. Recorded inhibition of C=C1CC[C@H]2C(C)(C)[C@H](O)CC[C@]2(C)[C@H]1C[C@]12O[C@H]1C(=O)C(COC(=O)C[C@H](C)O)=CC2=O , please.
Ans. Dose-dependent effect

====

molecular target: Proteasome Macropain subunit MB1 (Homo sapiens, UniProt P28074); assay: Inhibition of chymotrypsin-like activity of beta5 subunit of 20S proteasome in human erythrocytes using Suc-LLVY-MCA as substrate preincubated with enzyme for 10 mins followed by substrate addition and measured after 3 hrs by fluorescence spectrophotometric analysis
We label by threshold. Values of IC50 strictly beneath 6 µM are 1. Values of 6 µM and up are 0.

| testSmiles | testedTarget | labelValue |
| --- | --- | --- |
| C=C1CC[C@H]2C(C)(C)[C@H](O)CC[C@]2(C)[C@H]1C[C@]12O[C@H]1[C@H](O)C(COC(=O)[C@H](O)[C@H](C)O)=CC2=O | Proteasome Macropain subunit MB1 (Homo sapiens, UniProt P28074) | 0 |
| C=C1CC[C@H]2C(C)(C)[C@H](O)CC[C@]2(C)[C@H]1C[C@]12O[C@H]1[C@H](O)C(COC(=O)C[C@H](C)O)=CC2=O | Proteasome Macropain subunit MB1 (Homo sapiens, UniProt P28074) | 0 |
| C=C1CC[C@H]2C(C)(C)[C@H](O)CC[C@]2(C)[C@H]1C[C@]12O[C@H]1C(=O)C(COC(=O)[C@H](O)[C@H](C)O)=CC2=O | Proteasome Macropain subunit MB1 (Homo sapiens, UniProt P28074) | 1 |
| C=C1CC[C@H]2C(C)(C)[C@H](O)CC[C@]2(C)[C@H]1C[C@]12O[C@H]1C(=O)C(COC(=O)C[C@H](C)O)=CC2=O | Proteasome Macropain subunit MB1 (Homo sapiens, UniProt P28074) | 1 |

Qu. Hi there! Is IC50 for C=C1CC[C@H]2C(C)(C)[C@H](O)CC[C@]2(C)[C@H]1C[C@]12O[C@H]1C(=O)C(CO)=CC2=O below 6 µM, do you know?
Ans. 0

Qu. Hi there! Is IC50 for C=C1CC[C@H]2C(C)(C)[C@H](O)CC[C@]2(C)[C@H]1C[C@]12O[C@H]1[C@H](O)C(CO)=CC2=O below 6 µM, do you know?
Ans. 0
